Tested on: MS2 coat protein
method_notes: apparent KD of MS2 coat protein; designed switch direction (-1 OFF switch, 1 ON switch): -1; higher = weaker reporter binding
experimental_conditions: input ligand: microRNA oligo, concentration not stated
In this section, each of the sequences is paired with its reported apparent KD of MS2 coat protein.
Write the number in nM without appending the unit.

Would you please look over these solved cases?
CCUCGUGCACGAGGAUAUUGGAAAGGAAGUGUACGAGAAGGCGUGCCGAGGGAACAUGAGGAUCACCCAUGUGGCCUCAUCACA [PowerStrip EXNG 1.13] (Eterna round: R96, puzzle: Exclusion NG 1): 97.5
CAGUCGAUAAGAUCAAUUAAUUAACAUGAGGAUCACCCAUGUGAGGAUAUCAGCUCGUUUAGAGCUGAGAAGGCACAACGACUG [ExNG3/17-A2] (Eterna round: R96, puzzle: Exclusion NG 3): 32.4
UUUUUAUAUGAAGGAUAUACUUAACAUGAGGAUCACCCAUGUGGUGUUGUGAGUGAGUGAGUUUAGUAGAAGGUCAAGAAUUUU [JMF's solution 34] (Eterna round: R96, puzzle: Exclusion NG 2): 399
CCCAGUUAGGAAGGAUAUUGUACAUGAGGAUCACCCAUGUAAUAAAUGAGGAUCACGGAUGUAGACAAGAAGGUCCGGAUAGGC [Ostracism 8 - Jieux - Exclusion NG 2] (Eterna round: R96, puzzle: Exclusion NG 2): 41.5
UCGUUCCGUGUAGGAUAUUGGCCUCCCUCGGGCCGAGAAGGACAUGAGGAUCACCCAUGUAUGUUAUUAUCGCGCGUGGCGCAU [Design 89] (Eterna round: R96, puzzle: Exclusion NG 1): 14.5

Noted for UAUAUAUAGUAAGGAUAUGUAUUAAGUUUAUAAACAGAAGGUACUGACAUGAGGAUCACCCAUGUUUUAGUGUGGGCAUGUAGA [JMF's solution 76] (Eterna round: R96, puzzle: Exclusion NG 1) : its apparent KD of MS2 coat protein reads 52.6

Noted for UCAUGUUAGCAGGAUAUGCUAUUUAUUUUUUAUGCAGAAGGGCUUACAUGAGGAUCACCCAUGUGUUAGGUUUU [JR_E6_Sub073] (Eterna round: R96, puzzle: Exclusion 6) : its apparent KD of MS2 coat protein reads 41.5

Noted for CUUGCGGAUAAAGGAUAUUGCGGUGACCGGCUCGGCGUACCGAGCCUACAUGAGGAUCACCCAUGUAAGAAGGUUGUCGCUGGU [JL ViennaUCT Qudice mod 3] (Eterna round: R96, puzzle: Exclusion NG 2) : its apparent KD of MS2 coat protein reads 8.45

Noted for GUCAGCUCGUCAGGAUAUGCACAUGAGGAUCACCCAUGUAAGAUCAAGCUGCUUCGGCAGCAAGUGCAGAAGGGACGAGCUGAU [ENG2/9-B3] (Eterna round: R96, puzzle: Exclusion NG 2) : its apparent KD of MS2 coat protein reads 214

Noted for UUAGAUUAUGAAGGAUAUGGAUCUUAUUAUUAACCAGAAGGUCAACUCAACAUGAGGAUCACCCAUGUAUAAAGGGUAUUAGUU (Eterna round: R96, puzzle: Exclusion NG 1) : its apparent KD of MS2 coat protein reads 109

Noted for AGGUGCUUCUGGAGACAUGAGGAUCACCCAUGUCGAGUCAGCGAGGAUAUCGGUAAGACAUGUGAUGAGAAGGCGCAGACCGAU [Ex NG3 #52] (Eterna round: R96, puzzle: Exclusion NG 3) : its apparent KD of MS2 coat protein reads 22.6

Noted for UUGUUGUAUGUAGGAUAUGCAUAUUGUUAUUAUGCAGAAGGACAUGAGGAUCACCCAUGUAUAUUAUUAUUAUAUAUUAUAUAU [Title] (Eterna round: R96, puzzle: Exclusion NG 1) : its apparent KD of MS2 coat protein reads 20.9

Noted for ACAUGAGGAUCACCCAUGUCGAGUACAUGAGGAUCACCCAUGUAGGAUAUGGUUCGCUUUGCGUGCUAGAAGGAUAUGUGUUGA [salish99_ExNG3_r04_510] (Eterna round: R96, puzzle: Exclusion NG 3) : its apparent KD of MS2 coat protein reads 148

Noted for GGUACUCAAAGAGUACCAAUACGAACAUGAGGAUCACCCAUGUAGGAUAUGCUACUCAAAGAGUAGCAGAAGGACGUGUACCCU [Far Half Aptamer v2] (Eterna round: R96, puzzle: Exclusion NG 3) : its apparent KD of MS2 coat protein reads 21.9

Noted for CACCGUUACCGAGGAUAUCGUACAUGAGGAUCACCCAUGUAAUAAAUGAGAAUUUCGGAUGUAUGCGAGAAGGCGGGAAUCGGC [Ostracism 35 - Jieux - Exclusion NG 2] (Eterna round: R96, puzzle: Exclusion NG 2) : its apparent KD of MS2 coat protein reads 24.8

Noted for GCAGCAUAGUUAACAUACUGUUACAUGAGGAUCACCCAUGUACAGGAUAUGGUCUGGAUUACAGGCCAGAAGGGUACAAGCUGC [Eli exng3 - 020] (Eterna round: R96, puzzle: Exclusion NG 3) : its apparent KD of MS2 coat protein reads 7.8

Noted for CCUAGUUGGUAAGGAUAUCCUACACUGUUCUGACCCGGGCAUGCUACAUGAGGAUCACCCAUGUGGGAGAAGGUGCGUCAUCGC [Design 15] (Eterna round: R96, puzzle: Exclusion NG 2) : its apparent KD of MS2 coat protein reads 27.1

Noted for UUGUACCGGUGAGGAUAUUUUUAAUAGAGCUUUAUGAUAUACAUGAGGAUCACCCAUGUUACUUUAAAGAAGGCAUCGGAUUAU [JL JR Sub091 mod 3] (Eterna round: R96, puzzle: Exclusion NG 2) : its apparent KD of MS2 coat protein reads 12
